test system: SH-SY5Y; experiment: Antioxidant activity in human SH-SY5Y cells assessed as sequestering of rotenone/oligomycin A-induced mitochondrial free radicals at 0.3 uM after 120 mins by DCFH-DA assay; assay type: functional
readout.name: Activity (%)
API: value field is a number in %; no unit string.

Example results:
molecule: O=C(CN1CCCC1)NN1c2ccccc2Sc2cc(Cl)ccc21
readout.name: Activity
unit.annotation: %
value: 14.7

molecule: O=C(CCN1CCCC1)NN1c2ccccc2Sc2ccccc21
readout.name: Activity
unit.annotation: %
value: 23.8

Specify reported Activity for the molecule shown: Cc1c(C)c2c(c(C)c1O)CCC(C)(C(=O)O)O2 (centres undefined) [TROLOX]
27.8

Please report Activity for the following molecule: COc1ccc2c(c1)Sc1ccccc1N2NC(=O)CCN1CCN(C)CC1
24.2

====

molecular target: Cholinesterase (Equus caballus, UniProt P81908)
Sequence (P81908 whole entry): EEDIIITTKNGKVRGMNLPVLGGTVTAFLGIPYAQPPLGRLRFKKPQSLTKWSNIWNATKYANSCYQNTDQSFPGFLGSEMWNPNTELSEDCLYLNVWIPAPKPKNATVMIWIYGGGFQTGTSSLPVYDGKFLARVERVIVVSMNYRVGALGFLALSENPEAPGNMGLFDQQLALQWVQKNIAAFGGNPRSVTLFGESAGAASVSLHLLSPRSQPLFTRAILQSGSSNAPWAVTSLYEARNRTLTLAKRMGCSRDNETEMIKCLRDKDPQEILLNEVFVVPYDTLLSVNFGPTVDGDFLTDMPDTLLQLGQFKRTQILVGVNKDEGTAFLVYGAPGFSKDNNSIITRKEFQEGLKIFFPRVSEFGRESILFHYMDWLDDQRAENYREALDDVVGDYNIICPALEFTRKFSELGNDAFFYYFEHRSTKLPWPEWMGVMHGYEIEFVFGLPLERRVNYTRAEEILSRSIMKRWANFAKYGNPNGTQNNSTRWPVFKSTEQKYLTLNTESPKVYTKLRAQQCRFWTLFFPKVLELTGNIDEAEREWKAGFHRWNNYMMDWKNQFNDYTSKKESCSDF
We'd kindly ask you to apply these IC50 classes: 0 (below 1000 nM), 1 (1000 nM to below 2000 nM), 2 (2000 nM or more)

Check out these entries, answers already filled in.
smiles.data: CN1CCN(CCC(=O)NN2c3ccccc3Sc3cc([N+](=O)[O-])ccc32)CC1
cat: 1
//
smiles.data: CN(C)CC(=O)NN1c2ccccc2Sc2ccc(Cl)cc21
cat: 2
//
smiles.data: CN(C)CC(=O)NN1c2ccccc2Sc2ccccc21
cat: 1
//
smiles.data: O=C(CN1CCCCC1)NN1c2ccccc2Sc2cccc(Cl)c21
cat: 2
//
smiles.data: COc1ccc2c(c1)Sc1ccccc1N2NC(=O)CCN1CCCC1
cat: 0

Using the reported IC50, which band applies to CN1CCN(CCC(=O)NN2c3ccccc3Sc3ccccc32)CC1 ?
1

Hi there! Could you help me figure out the category for O=C(CN1CCCCC1)NN1c2ccccc2Sc2ccc(Cl)cc21 please?
2

====

assay: in vitro; details: PAMPA
Description: Permeability of the compound by PAMPA assay
readout.name: Papp (×10⁻⁶ cm/s)
Please respond with the number in ×10⁻⁶ cm/s and leave the unit unwritten.

// solved cases for Papp follow
smiles.data: O=C(CN1CCCCC1)NN1c2ccccc2Sc2ccc(Cl)cc21
unit.annotation: ×10⁻⁶ cm/s
value: 9.1
//
smiles.data: CN1CCN(CCC(=O)NN2c3ccccc3Sc3cc([N+](=O)[O-])ccc32)CC1
unit.annotation: ×10⁻⁶ cm/s
value: 14.6
//
smiles.data: O=C(CCN1CCCC1)NN1c2ccccc2Sc2ccccc21
unit.annotation: ×10⁻⁶ cm/s
value: 17.3

Fill in reported Papp for this entry: O=C(CN1CCCC1)NN1c2ccccc2Sc2cc(Cl)ccc21
14.9

Specify Papp for CN1CCN(CCC(=O)NN2c3ccccc3Sc3cc(Cl)ccc32)CC1 and stop.
13.8

Look up and report measured Papp for this entry: CN(C)CC(=O)NN1c2ccccc2Sc2ccccc21
18.3

Give the measured Papp for O=C(CN1CCCCC1)NN1c2ccccc2Sc2cc(Cl)ccc21
14.7

Specify measured Papp for CN1CCN(CCC(=O)NN2c3ccccc3Sc3ccccc32)CC1 .
17

====

target: Cholinesterase (Equus caballus, UniProt P81908)
Entries and their pIC50 values follow.
Just the number, please; pIC50 means minus log10 of the concentration in mol/L.

Examples with answers:
smiles.data: O=C(CCN1CCCC1)NN1c2ccccc2Sc2cc(Cl)ccc21
pIC50: 5.52
--
smiles.data: O=C(CCN1CCCC1)NN1c2ccccc2Sc2ccccc21
pIC50: 5.85
--
smiles.data: O=C(CN1CCCCC1)NN1c2ccccc2Sc2cc(Cl)ccc21
pIC50: 6.15

Report value: pIC50, system: Cholinesterase (Equus caballus, UniProt P81908), molecule: O=C(CN1CCCC1)NN1c2ccccc2Sc2ccccc21
6.10

Report pIC50 on Cholinesterase (Equus caballus, UniProt P81908) for this entry: CN(C)CC(=O)NN1c2ccccc2Sc2cc(Cl)ccc21
5.30

Check Cholinesterase (Equus caballus, UniProt P81908) data and give pIC50 for O=C(CN1CCCC1)NN1c2ccccc2Sc2cc(Cl)ccc21 .
6.00

Attribution: ChEMBL document CHEMBL1938277
